interaction score for assorted binders
Molecular target: T1, 4H3129-AA
T1 chain: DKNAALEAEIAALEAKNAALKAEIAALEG
Experiment: two-hybrid library CCmax;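 also: natural log of median RNA to DNA barcode read ratio; higher means stronger binding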

binder: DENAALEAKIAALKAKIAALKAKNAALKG [4H1392-AA]
interaction score: -1.07

binder: DENAALKAKIAALKAKNAALKAEIAALEG [4H1913-AA]
interaction score: -0.895

binder: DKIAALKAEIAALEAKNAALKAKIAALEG [4H2621-AA]
interaction score: -1.64

binder: DKNAALEAEIAALEAKNAALKAEIAALEG [4H3129-AA]
interaction score: -1.5
